Measured values drawn from patent US20250345311A1 for this set.

System: H358 cells
Experiment: cells
Assay type: cell-based

Compound | Target Or System | cytotoxicity against lung cancer cells
O=C(NCc1ccc(O)cc1)C1C(c2ccccc2)=NN(c2ccccc2)C1c1ccccc1 (stereo not shown) [FN1-8, reference compound] | H358 cells | good cytotoxicity
CC(C)C[C@@H]1NC(=O)[C@@H](N)CSSC[C@@H](C(=O)NCC(=O)N2CCC[C@H]2C(=O)O)NC(=O)[C@H](Cc2ccc(O)cc2)NC(=O)[C@H](CCCCN)NC(=O)[C@H](CC(=O)O)NC(=O)[C@H](CO)NC(=O)CNC(=O)[C@H](C)NC(=O)[C@H](C(C)C)NC(=O)[C@H](CC(=O)O)NC(=O)[C@H](Cc2ccc(O)cc2)NC1=O [cyclic peptide] | H358 cells | weak cytotoxicity
NCc1ccc(CNC(=O)C2C(c3ccccc3)=NN(c3ccccc3)C2c2ccccc2)cc1 (stereo not shown) | H358 cells | good cytotoxicity
CC(C)C[C@@H]1NC(=O)[C@@H](N)CSSC[C@@H](C(=O)NCC(=O)N2CCC[C@H]2C(=O)NCc2ccc(CNC(=O)C3C(c4ccccc4)C(c4ccccc4)=NN3c3ccccc3)cc2)NC(=O)[C@H](Cc2ccc(O)cc2)NC(=O)[C@H](CCCCN)NC(=O)[C@H](CC(=O)O)NC(=O)[C@H](CO)NC(=O)CNC(=O)[C@H](C)NC(=O)[C@H](C(C)C)NC(=O)[C@H](CC(=O)O)NC(=O)[C@H](Cc2ccc(O)cc2)NC1=O (stereo partly shown) | H358 cells | weak cytotoxicity
